Where do the numbers come from? From the DeepSol protein solubility set.

Test: soluble on expression in E. coli; label from the status in PepcDB or PDB records
Reported property: soluble on expression in E. coli

Here's what some known entries look like.
MDALVSTKANSIAYQRSTVIIPAYNEEKRLMPVLYELCEYIRSNSLEWKVMVSIDGDDGTESNVKIMMQEYSFLSYSKGKGRGGKGAAIKRAITSATGEFVILMDADGSVPLKEIVKALDLTNYYDLIIFDRYSNRGNRIPFIRRFPSRGFNKLVRIFLGLKINDTQCGYKIIKREYAQRAFNKITISNAFFDVALLYYLKKERAKYIEIPVEYNYDRNSKFHVVELVLGEGISLIAFRIRNSRFYKYVPEKLISLYYRKFRWILEHHHHHH soluble
MAAYYRWKSFEENEDRPEKPRRYGVTEMRGPHYSVLSQNLLQEIFESMGQFVDGLKFSGGSNSLIPKSFIKQAIEMAHEHGVYVSTGDWAEHMLRSGPSAFKDYVEECKQLGFDTIELNANLLEVPEETLLRYVRLIKNGGLRAKPMFAVKFNKSDIPGRNRAFGSYVVPEPRSSEFVEDIDLLIRKAERCLEAGADTIMIDADDVCKYADSLRADIIAKVIGRLGIEKTMFEASDAKLVEWFIKRYGPNVNLYVDHSQIMDLECLRGRHLGKDHQSVLSSSYFLF soluble
LINQAEVDIYDIPVALITEQYMAYIHTMQELQLDVASEYLVMAATLLQIKSKMLLPKQEEIFDETFEYEEEDPREELMFRLIEYRRYKEAAQELKEKEGERSQVHTRLPDNLDDYLTEEERQRQSIQGVTLFDMLAAYQKLLKRRAYSRPRTSTVKVEEYSIDERMTDILMDLEKCNGKCRFQDLFV not soluble
MSSQDVLIHSDDPCHPANLICTLCKQFFHNNWCTGTGGGISIKDPNTNYYYLAPSGVQKEKMIPEDLFVMDAQTLEYLRSPKLYKPSACTPLFLACYQKKNAGAIIHTHSQNAVICSLLFGDEFRIANIEQIKAIPSGKVDPVTKKPMALSFFDTLKIPIIENMAHEDELIDDLHKTFKDYPDTCAVIVRRHGIFVWGPTIDKAKIFNEAIDYLMELAIKMYQMGIPPDCGIGEEKKHLKMASP soluble
MAHHHHHHMELEEFWLTDGSISDWGEVKKFCGFANTLRTIYVERNPIEQDKRYRDKVYMNLPFVTQIDSWPVVNKDNLEGDRLIQRRAS soluble

Now look at this entry.
(Q) State its soluble on expression in E. coli for this sequence: MSDVEKKSETQEAAPKKKPYNLREKKEKKAAYRSLIRAELADELYDKILNIVVVQKKYKDPNYSAKDLAKELKTNTRYLSAVVNSRFGMNYSCLLNEYRIKDALHLLVDKRYMDKNVEEISAMVGFANRQSFYAAFYKNVGETPNGYRKRNQEKK
(A) not soluble

###

Experiment: soluble on expression in E. coli; label from the status in PepcDB or PDB records
Reported property: soluble on expression in E. coli

Here's what some known entries look like.
MGSDKIHHHHHHMVQAIDNTIATNFLTDAVVERHNFSQLNKTRIRFRIQLKKSTKSAAPKWADVLQAEVSEIESDLVKVTNSEVGLRGIKVFKKLDEAAAQLRQEIASVQEWMSADTGDWVCPIDLAPLVWNQLINIRDNIAPGLRNQLKADYEAGLVDYQERIDQFLSLNTWELAQDKQESVKANLLRAFPTLTDLEDYLQVVIGRPVIIPALSEQLNQQQAECLDQITKFIQQYDQNLEQRLRESALAGGEQLAAQLLEELADWEPGRKPVQFKKKMERHLMKVQVLLANADSEAGSSLEAMMTHLDSIVNDPAIESKNLGSDTRSQLQQKMQEIRIKLLDEQRNLQSLATEDVGLSKATVMSFKFR not soluble
MNRYRKILVAGIIDQEEQPALKRALDIANRTTKPSEITLFCTTYDFSYEMTSMLSADERMAMRNGVVSQKVKMLNDVIADYSKSDHVTITIKVVWHNRPYEAIINEIFDDSYNILIKATRQHAKLETVFFTPTDWHLLRKSPIPVLLVKERPWPENGNILASVHVGSENPAHLQLNDKMVDEAIYFAEVLNSTPHLVNAYPSTPPSIHVELPEFNAVQYKDAIRGHHLTQMKALRQKYGIPEEQTHVYEGPTEEVISEVEDELTAGLVILGTTGRTGLSAIFIGNTAENTLDLLNCDILALKPDGYISPLDPNHIS not soluble
MITFKPTRNIDLIEAVGNHPDIIAGSNNGDGYDYKPECRYFEVNVHGQFGGIVYYQEIQPLTLDCHAMYLPEIRGFSKEIGLAFWRYILTNTTVQCVTSFAARKFRHGQMYCAMIGLKRVGTIKKYFKGVDDVTFYSATREELIDFLNHGR not soluble
QDSDSTAAVAVLKRAVELDAESRYQQALVCYQEGIDMLLQVLKGTKESSKRCVLRTKISGYMDRAENIKKYLDQEKEDGK soluble

Now look at this entry.
(Q) State its soluble on expression in E. coli for this sequence: MLWRKRLFAHLYPGLSARHEALVAERKRALFREALRRARPERVLEIGPGPGTNLAHLPEGVAYLALEPNPFFHPRLREEARKRGLALTLLPGRAEAIPLPGGSVDLVVATLVLCSVADPEKAIEEVHRVLRPGGAYLFLEHVAAPKRTPLRFLQEVATPFFAFFGDGCHPNRETLALIQARFPRVEAEAFPLPLPVVAPHVAGLAFKEGGSGGSLQGPWA
(A) soluble
